B1: INTS3 (parent)
chain: DLNSKGKKREFRFHPIKETVVEEP

# Variants of: B1
# experiment-notes: protein stability index of a GFP-peptide fusion (GPS, HEK-293T) (PSI 1-6); higher = more stable;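 further: lentivirally expressed fusions sorted by FACS into six bins by GFP to DsRed ratio, PSI derived from sequencing read proportions per bin multiplied by bin number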
# condition-parameters: c terminus: a fixed tail appended
experimental-readout: protein stability index
API doc: respond with a numeric literal and nothing else, no unit.

Below, 3 variants whose answers are already recorded.
> print(dat)
   change     experimental.readout  value
1     R9I  protein stability index   2.35
2     L2F  protein stability index    2.2
3     K8W  protein stability index   2.27

Memo: V20N , reported protein stability index: 2.37

Memo: K17W , reported protein stability index: 1.8

Memo: I16A , reported protein stability index: 2.06

Memo: L2A , reported protein stability index: 2.73

Memo: F13Q , reported protein stability index: 4.5

Memo: D1V , reported protein stability index: 2.47
